Biological target: Cytochrome P450 2D6 (Homo sapiens)
Assay: Cytochrome panel assay with activity outcomes
Settings: recombinant CYP, pro-luciferin dealkylation, luminescence, p450-cyp2d6; series mostly up to 57.1 µM
Out of some 16,000 compounds screened, about 2,600 (16%) were called active. About 20% were inconclusive and are not listed. The call rests on the fitted dose curve; in most records, active means well fitted curve in the direction sought with a large enough effect; inconclusive means small, poorly fitted or top-dose-only effect, or effect the other way; inactive means no such curve, though single readings can be large or run the other way. Not all results are given here.
Hi there, use one of these labels in your reply, thanks! label 1 for active, label 0 for inactive

The following compounds have reported results that may help.
>>> cat("CN(Cc1ccco1)c1nc(-c2ccc3c(c2)OCO3)nc2ccccc12")
"label 1"
>>> cat("N#Cc1cccc(-c2nc(Nc3ccccc3)c3ccccc3n2)c1")
"label 0"
>>> cat("N[C@@H](Cn1cc(I)c(=O)n(Cc2ccc(C(=O)O)cc2)c1=O)C(=O)O")
"label 1"
>>> cat("COc1cccc(N2CCN(C(=S)Nc3cccc(C)c3)CC2)c1")
"label 0"
>>> cat("N[C@H](Cn1ccc(=O)n(Cc2ccccc2C(=O)O)c1=O)C(=O)O")
"label 0"

Hi, sorry to bother you, what did the test record for `Cc1ccc([N+](=O)[O-])cc1N=C(c1cccc([N+](=O)[O-])c1)N1CCOCC1` ? label 0

====

Reported activity, negative = inhibition values for a set of compounds
Target: Cytochrome P450 2D6 (Homo sapiens) (UniProt P10635)
Sequence (P10635 whole entry, looked up): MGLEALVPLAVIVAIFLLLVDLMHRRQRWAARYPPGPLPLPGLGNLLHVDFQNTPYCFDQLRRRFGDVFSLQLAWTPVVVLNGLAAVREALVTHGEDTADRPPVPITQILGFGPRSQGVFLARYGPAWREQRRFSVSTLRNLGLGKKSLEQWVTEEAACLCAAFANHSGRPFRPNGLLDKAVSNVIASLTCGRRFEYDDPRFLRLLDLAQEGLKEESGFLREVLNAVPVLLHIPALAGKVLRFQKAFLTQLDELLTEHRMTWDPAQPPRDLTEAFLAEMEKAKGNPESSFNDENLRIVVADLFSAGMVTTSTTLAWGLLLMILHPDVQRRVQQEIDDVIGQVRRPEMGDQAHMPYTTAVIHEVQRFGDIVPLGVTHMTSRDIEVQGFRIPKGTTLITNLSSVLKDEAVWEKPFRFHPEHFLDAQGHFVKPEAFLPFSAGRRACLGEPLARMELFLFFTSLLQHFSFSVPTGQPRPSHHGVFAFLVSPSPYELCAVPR
Assay: Cytochrome panel assay with activity outcomes; on activity, negative = inhibition: on the % scale 0 is the no-effect control and ±100 the full control effect
Settings: recombinant CYP, pro-luciferin dealkylation, luminescence, p450-cyp2d6; series mostly up to 57.1 µM
Out of some 16,000 compounds screened, about 2,600 (16%) were called active. Roughly 20% stayed inconclusive and do not appear here. The list is a sample of the results.

Worked examples, 5 compounds total:
>>> endpoint_value("COc1ccc(O[C@H]2C=C[C@@H](c3ccccc3)O[C@H]2CO/N=C(/C)CCC(=O)OC[C@@H]2O[C@H](C#Cc3ccccc3)C=C[C@@H]2Oc2ccc(C)cc2)cc1")
"11.9% [at 11.4 µM] (inactive)"
>>> endpoint_value("Nc1nc(Sc2ccc([N+](=O)[O-])c3nonc23)c2[nH]cnc2n1")
"3.81% [at 11.4 µM] (inactive)"
>>> endpoint_value("COc1cccc([C@@H]2Oc3ccc(OC)cc3/C(=N/O[C@@H](C)c3cn([C@H]4COC[C@H]4O)nn3)[C@@H]2O)c1")
"-18.2% [at 11.4 µM] (inactive)"
>>> endpoint_value("O=C(O)c1nc(-c2ccccc2)[nH]c1C(=O)O")
"-20.9% [at 11.4 µM] (inactive)"
>>> endpoint_value("COc1ccc(O[C@H]2C=C[C@@H](c3ccccc3)O[C@H]2COC(=O)CC/C(C)=N\\O[C@@H](C)c2cc(-c3c(C)cc(C)cc3C)no2)cc1")
"-7.29% [at 11.4 µM] (inactive)"

# lookup: activity, negative = inhibition of `N#C/C(=C\Nc1ccccn1)C(=O)C1CC1` 5.79% [at 11.4 µM] (inactive)

What about `NC(=O)c1nnn(Cc2cc(Cl)c(C(=O)c3ccc(Cl)cc3)c(Cl)c2)c1N` ? -20.8% [at 11.4 µM] (inactive)

What about `c1ccc2c(c1)C(=Nc1ccc(N=C3c4ccccc4-c4ccccc43)cc1)c1ccccc1-2` ? -8.16% [at 11.4 µM] (inactive)

====

Target: Cytochrome P450 2D6 (Homo sapiens)
Test: Cytochrome panel assay with activity outcomes
Settings: recombinant CYP, pro-luciferin dealkylation, luminescence, p450-cyp2d6; series mostly up to 57.1 µM
About 2,600 (16%) of roughly 16,000 compounds were called active. About 20% were inconclusive and are not listed. Calls come from the whole dose curve; as a rule, active = well fitted curve in the direction sought with a large enough effect; inconclusive = small, poorly fitted or top-dose-only effect, or effect the other way; inactive = no such curve, though single readings can be large or run the other way. These entries were drawn from the full list.
Hi there, use one of these labels in your reply, thanks! active, inactive

>>> cat("N[C@H](C(=O)O)c1ccc(O)c(C(=O)O)c1")
"inactive"
>>> cat("Cc1noc(C)c1-c1cc(NC2CCNCC2)ncn1")
"inactive"
>>> cat("N[C@@H](C(=O)O)c1ccc(C(=O)O)cc1")
"inactive"
>>> cat("CC(=O)NCCNc1cc(-c2ccccc2CN(C)C)ncn1")
"inactive"
>>> cat("CCOC(=O)CSc1n[nH]c(NC(=O)c2ccccc2)n1")
"inactive"
>>> cat("N[C@@H](C(=O)O)c1ccc(C(=O)O)c(O)c1")
"inactive"

Hi, sorry to bother you, what did the test record for `CNc1cc(-c2ccccc2CN(C)C)ncn1` ? active

What about `CNc1cc(-c2ccccc2C(F)(F)F)ncn1` ? inactive

What about `N[C@H](C(=O)O)c1ccc(C(=O)O)cc1` ? inactive

What about `N[C@@H](C(=O)O)c1ccc(P(=O)(O)O)cc1` ? active

What about COc1cc(C2C(C(=O)c3cccs3)=C(O)C(=O)N2Cc2ccco2)cc(OC)c1OC (configuration not stated) ? inactive

What about `Cc1nc2cnc(Oc3ccccc3)nc2n(CCc2ccccc2)c1=O` ? inactive
